Known half-life of a selection of compounds
# ASSAY EXPLANATION: Tested for Half- life in rat liver homogenate (2%)
# Type: ADME

| COMPOUND | RESULT UNIT | half-life |
| --- | --- | --- |
| CCOc1nc2cccc(C(=O)OCOC(=O)C(C)(C)C)c2n1Cc1ccc(-c2ccccc2-c2nn[nH]n2)cc1 | min | 0.48 |
| CCCCc1nc2cccc(C(=O)O)c2n1Cc1ccc(-c2ccccc2-c2nnn(COC(=O)C(C)(C)C)n2)cc1.CCCCc1nc2cccc(C(=O)O)c2n1Cc1ccc(-c2ccccc2-c2nnnn2COC(=O)C(C)(C)C)cc1 | min | 9.8 |
| CCOc1nc2cccc(C(=O)OC(C)OC(=O)OC3CCCCC3)c2n1Cc1ccc(-c2ccccc2-c2nnn[nH]2)cc1 (centres undefined) [CANDESARTAN CILEXETIL] | min | 2.29 |
| CCCCc1nc2cccc(C(=O)OCOC(=O)C(C)(C)C)c2n1Cc1ccc(-c2ccccc2-c2nn[nH]n2)cc1 | min | 3.61 |

# credit: ChEMBL document CHEMBL1126763
